Test: in vivo
Settings: mouse, iv, female mice, read-out: LD50 values i.v. female
measured_property: LD50 (mg/kg)
Give bare numbers, in mg/kg.

What measured LD50 goes with CCCCC1C(=O)OC(CCCNC(=N)N)C(C)C(O)C(C)C=C(C)CCCCC(O)CC(O)CC(O)CC(O)CC(O)C(OC2OC(CO)C(O)C2O)C=C(C)C(O)CCCC(O)CCCC(O)CCC(C)C1O (stereo not shown) [Pseudo-primycin-A1-acetate] ?
18.8
